Origin of the recorded values: patent US8048862B2

# key: entry, value: EC50
Tested on: hepatitis C replicon
assayProtocol: hepatitis C replicon EC50
Assay type: cell-based
protocolConditions: Hepatitis C virus; Table 3; hepatitis C replicon; read-out: EC50

Reference set (2 entries):
1) CC(C)(C)OC(=O)N[C@H]1CCCCC/C=C\[C@@H]2C[C@@]2(C(=O)NS(=O)(=O)C2CC2)NC(=O)[C@@H]2C[C@@H](Oc3nc4ccc(Cl)cc4o3)CN2C1=O [Compound 1036] = > 100 nM
2) CC(C)(C)OC(=O)N[C@H]1CCCCCCC[C@@H]2C[C@@]2(C(=O)NS(=O)(=O)C2(C)CC2)NC(=O)[C@@H]2C[C@@H](OC(=O)N3Cc4cccc(F)c4C3)CN2C1=O [Compound 1081] = < 10 nM

Would you kindly look at the next entry?
Q: Entry under review: CN(C)C(=O)c1cccc(N[C@H]2CCCCC/C=C\[C@@H]3C[C@@]3(C(=O)NS(=O)(=O)C3(C)CC3)NC(=O)[C@@H]3C[C@@H](OC(=O)N4Cc5cccc(F)c5C4)CN3C2=O)c1 [Compound 1106] . Reported EC50?
A: 10 to 100 nM
